FYI, the data here is from patent US6746623B2.

Test: Dynamic surface tension of aqueous solutions, maximum bubble pressure method
Format: physicochemical
Settings: 0.1 wt % in distilled water, 1 b/s
Kindly state γ at 0.1 wt %, 1 b/s for each of the entries shown.
One number for each entry, in dyne/cm.

> print(dat)
                                    compound  unit.info  quantitative.readout
 1  CCCCOCC(O)CN(CCCOCCOCCOCCCN(CC(O)COCCCC)CC(O)COCCCC)CC(O)COCCCC (stereo not shown)    dyne/cm                  38.9
 2  CCCCOCC(O)CNC1CCC(CC2CCC(N)CC2)CC1 (mixture of isomers)    dyne/cm                  47.0
 3  CCCCOCC(O)CN(CCCC(C)CN(CC(O)COCCCC)CC(O)COCCCC)CC(O)COCCCC (stereo not shown)    dyne/cm                  55.7
 4  CCCCOCC(O)CNC1CCC(CC2CCC(N(CC(O)COCCCC)CC(O)COCCCC)CC2)CC1 (stereo not shown)    dyne/cm                  59.2
 5  CCCCC(CC)COCC(O)CNCCN (mixture of isomers)    dyne/cm                  37.3
 6  CCCCOCC(O)CNCCCOCCOCCOCCCN(CC(O)COCCCC)CC(O)COCCCC (stereo not shown)    dyne/cm                  39.4
 7                 CCCCOCC(O)CNCCN (racemic)    dyne/cm                  49.4
 8               CC(C)COCC(O)CNCCN (racemic)    dyne/cm                  51.9
 9  CCCCOCC(O)CN(CC(O)COCCCC)C1CCC(CC2CCC(N(CC(O)COCCCC)CC(O)COCCCC)CC2)CC1 (stereo not shown)    dyne/cm                  71.8
10  CCCCOCC(O)CNCCN(CC(O)COCCCC)CC(O)COCCCC (stereo not shown)    dyne/cm                  39.6

For each entry beneath this line, provide reported γ at 0.1 wt %, 1 b/s.
1. CCCCC(CC)COCC(O)CN(CCN(CC(O)COCC(CC)CCCC)CC(O)COCC(CC)CCCC)CC(O)COCC(CC)CCCC (stereo not shown)
2. CCCCOCC(O)CN(CCN(CC(O)COCCCC)CC(O)COCCCC)CC(O)COCCCC (stereo not shown)
3. CCCCOCC(O)CNCCCOCCOCCOCCCN (stereo not shown)
4. CCCCOCC(O)CNCCCCCCN(CC(O)COCCCC)CC(O)COCCCC (stereo not shown)
5. CCCCC(CC)COCC(O)CNCCN(CC(O)COCC(CC)CCCC)CC(O)COCC(CC)CCCC (stereo not shown)

1. 67.9
2. 38.9
3. 54.1
4. 43.1
5. 58.7

For each entry beneath this line, provide reported γ at 0.1 wt %, 1 b/s.
1. CC(C)COCC(O)CN(CCN(CC(O)COCC(C)C)CC(O)COCC(C)C)CC(O)COCC(C)C (stereo not shown)
2. CCCCOCC(O)CN(CCCCCCN(CC(O)COCCCC)CC(O)COCCCC)CC(O)COCCCC (stereo not shown)
3. CCCCOCC(O)CNCCCCCCN (racemic)
4. CC(C)COCC(O)CNCCN(CC(O)COCC(C)C)CC(O)COCC(C)C (stereo not shown)

1: 41.7; 2: 55.9; 3: 44.8; 4: 42.5
